Taken from patent US5387602A.

Would you kindly list log10 IC50 for each of these molecules?
# SYSTEM: RBL-1 Cell Cyclooxygenase (Rattus norvegicus, UniProt Q63921)
# Construct: the supernatant was saved as the source of enzymes; endogenous in cells
# TEST_PROTOCOL: Procedure II: cyclooxygenase inhibition in disrupted RBL-1 cells (supernatant as enzyme source)
# ASSAY_SETUP: read-out: IC50 CO (Procedure II)
Quick note: numbers are log10 of IC50, with nM as the unit.

[
  {
    "SAMPLE_SMILES": "COc1ccc(-n2nc(CCOC(=O)N(C)O)c(Br)c2-c2ccc(C)cc2)cc1",
    "log10 IC50": 2.92
  },
  {
    "SAMPLE_SMILES": "COc1ccc(-n2nc(CCOC(=O)N(O)C(C)C)c(Cl)c2-c2ccc(C)cc2)cc1",
    "log10 IC50": 2.68
  },
  {
    "SAMPLE_SMILES": "COc1ccc(-n2nc(CCOC(=O)N(O)C(C)C)c(Cl)c2-c2ccc(Cl)cc2)cc1",
    "log10 IC50": 2.40
  },
  {
    "SAMPLE_SMILES": "COc1ccc(-n2nc(CCCOC(=O)N(O)C(C)C)cc2-c2ccc(Cl)cc2)cc1",
    "log10 IC50": 3.25
  },
  {
    "SAMPLE_SMILES": "COc1ccc(-n2nc(CCOC(=O)N(C)O)c(Cl)c2-c2ccc(Cl)cc2)cc1",
    "log10 IC50": 3.43
  }
]

Please report log10 IC50 for every entry that follows.
1. COc1ccc(-n2nc(CCOC(=O)N(O)C(C)C)cc2-c2ccc(C)cc2)cc1
2. COc1ccc(-n2nc(COC(=O)N(C)O)c(Cl)c2-c2ccc(C)cc2)cc1
3. COc1ccc(-n2nc(COC(=O)N(C)O)cc2-c2ccc(C)cc2)cc1
4. COc1ccc(-n2nc(COC(=O)N(O)C(C)C)c(Cl)c2-c2ccc(Cl)cc2)cc1

Reply |
1: 1.60; 2: 2.32; 3: 2.18; 4: 3.21

====

# SYSTEM: CO in intact RBL-1 cells (Rattus norvegicus, UniProt Q63921)
# Construct: 5-LO and CO in intact RBL-1 cells; endogenous in cells
# Sequence (Q63921 27-602): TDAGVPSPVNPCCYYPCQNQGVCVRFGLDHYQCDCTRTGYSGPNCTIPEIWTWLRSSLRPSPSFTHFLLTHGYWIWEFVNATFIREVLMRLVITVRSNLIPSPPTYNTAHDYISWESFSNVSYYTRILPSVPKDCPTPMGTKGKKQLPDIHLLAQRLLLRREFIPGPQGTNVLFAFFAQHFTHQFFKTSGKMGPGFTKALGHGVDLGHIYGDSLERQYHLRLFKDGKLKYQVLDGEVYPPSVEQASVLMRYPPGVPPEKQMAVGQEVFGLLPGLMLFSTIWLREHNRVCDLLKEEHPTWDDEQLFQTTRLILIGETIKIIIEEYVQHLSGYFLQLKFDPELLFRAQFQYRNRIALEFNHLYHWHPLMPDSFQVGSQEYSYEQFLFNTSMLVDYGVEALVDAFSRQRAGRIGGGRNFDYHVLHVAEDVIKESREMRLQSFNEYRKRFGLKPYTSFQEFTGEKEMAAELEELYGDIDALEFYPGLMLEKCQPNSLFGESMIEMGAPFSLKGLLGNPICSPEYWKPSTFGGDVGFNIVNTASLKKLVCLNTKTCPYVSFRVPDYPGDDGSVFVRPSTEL
# TEST_PROTOCOL: Procedure III: inhibition of CO in intact RBL-1 cells
QUANTITY: IC50 (nM)
Numbers only, in nM.

[
  {
    "SAMPLE_SMILES": "COc1ccc(-n2nc(COC(=O)N(C)O)c(Cl)c2-c2ccc(Cl)cc2)cc1",
    "IC50 [nM]": 390
  },
  {
    "SAMPLE_SMILES": "COc1ccc(-n2nc(COC(=O)N(C)O)cc2-c2ccc(C)cc2)cc1",
    "IC50 [nM]": 30
  },
  {
    "SAMPLE_SMILES": "COc1ccc(-n2nc(COC(=O)N(C)O)c(Br)c2-c2ccc(Cl)cc2)cc1",
    "IC50 [nM]": 220
  },
  {
    "SAMPLE_SMILES": "COc1ccc(-n2nc(CCOC(=O)N(C)O)cc2-c2ccc(Cl)cc2)cc1",
    "IC50 [nM]": 800
  }
]

Now look at this one.
Ask | Answer with the recorded IC50 of COc1ccc(-n2nc(CCOC(=O)N(O)C(C)C)c(Cl)c2-c2ccc(C)cc2)cc1 only.
Reply | 1100
